Values were extracted from ChEMBL document CHEMBL4619814.

- System: Receptor-type tyrosine-protein kinase FLT3 (Homo sapiens), P36888 [UNDEFINED MUTATION]
- TEST CONDITIONS: MV4-11
- Description: Inhibition of FLT3 ITD mutant expressed in human MV4-11 cells assessed as reduction in cell growth incubated for 72 hrs by CCK8 assay
MEASURED METRIC: GI50

{"columns": ["LINE NOTATION", "MEASURED METRIC", "MEAS VALUE"],
 "data": [
  ["COc1cc(-n2cc(-c3ccc(NC(=O)Nc4cc(C(C)(C)C)on4)cc3)nn2)ccc1OCCN1CCOCC1", "GI50", "4.8 nM"],
  ["CC(C)(C)c1cc(NC(=O)Nc2ccc(-c3cn(-c4ccc(OCCN5CCCC5)cc4Cl)nn3)cc2)no1", "GI50", "5 nM"],
  ["CC(C)(C)c1cc(NC(=O)Nc2ccc(-c3cn(-c4ccc(OCCN5CCOCC5)cc4F)nn3)cc2)no1", "GI50", "5.1 nM"],
  ["CC(C)(C)c1cc(NC(=O)Nc2ccc(-c3cn(-c4ccc(OCCN5CCOCC5)c(C(F)(F)F)c4)nn3)cc2)no1", "GI50", "106 nM"]
]}

---

- TARGET SYSTEM: Receptor-type tyrosine-protein kinase FLT3 (Homo sapiens, UniProt P36888, D835V/ITD)
pKd: −log10 of the molar value.

{"columns": ["LINE NOTATION", "pKd"],
 "data": [
  ["CC(C)(C)c1cc(NC(=O)Nc2ccc(-c3cn(-c4ccc(OCCN5CCOCC5)cc4Cl)nn3)cc2)no1", 5.00]
]}

---

- TARGET SYSTEM: Receptor-type tyrosine-protein kinase FLT3 (Homo sapiens, UniProt P36888, ITD)
pIC50: −log10 of the molar value.
MEASURED METRIC: pIC50

{"columns": ["LINE NOTATION", "MEASURED METRIC", "MEAS VALUE"],
 "data": [
  ["CC(C)(C)c1cc(NC(=O)Nc2ccc(-c3cn(-c4ccc(OCCN5CCOCC5)cc4Cl)nn3)cc2)no1", "pIC50", 7.48]
]}

---

- ASSAY PROCEDURE: AUC in Sprague-Dawley rat at 25 mg/kg, po
- Format: ADME, organism-based
- TEST CONDITIONS: in vivo
MEASURED METRIC: AUC (ng·h/mL)

{"columns": ["LINE NOTATION", "MEAS VALUE"],
 "data": [
  ["CC(C)(C)c1cc(NC(=O)Nc2ccc(-c3cn(-c4ccc(OCCN5CCOCC5)cc4Cl)nn3)cc2)no1", 41300]
]}

---

- ASSAY PROCEDURE: Cmax in Sprague-Dawley rat at 25 mg/kg, po
- Format: ADME, organism-based
- Set-up: dose 25 mg/kg, route oral
- TEST CONDITIONS: in vivo
MEASURED METRIC: Cmax (ng/mL)

{"columns": ["LINE NOTATION", "MEAS VALUE"],
 "data": [
  ["CC(C)(C)c1cc(NC(=O)Nc2ccc(-c3cn(-c4ccc(OCCN5CCOCC5)cc4Cl)nn3)cc2)no1", 3220]
]}

---

- TARGET SYSTEM: Receptor-type tyrosine-protein kinase FLT3 (Homo sapiens, UniProt P36888, ITD)
pKd: −log10 of the molar value.

{"columns": ["LINE NOTATION", "pKd"],
 "data": [
  ["CC(C)(C)c1cc(NC(=O)Nc2ccc(-c3cn(-c4ccc(OCCN5CCOCC5)cc4Cl)nn3)cc2)no1", 8.16]
]}
